Biological target: human JAK3 (Homo sapiens (Human), UniProt P52333)
Sequence (P52333 whole entry): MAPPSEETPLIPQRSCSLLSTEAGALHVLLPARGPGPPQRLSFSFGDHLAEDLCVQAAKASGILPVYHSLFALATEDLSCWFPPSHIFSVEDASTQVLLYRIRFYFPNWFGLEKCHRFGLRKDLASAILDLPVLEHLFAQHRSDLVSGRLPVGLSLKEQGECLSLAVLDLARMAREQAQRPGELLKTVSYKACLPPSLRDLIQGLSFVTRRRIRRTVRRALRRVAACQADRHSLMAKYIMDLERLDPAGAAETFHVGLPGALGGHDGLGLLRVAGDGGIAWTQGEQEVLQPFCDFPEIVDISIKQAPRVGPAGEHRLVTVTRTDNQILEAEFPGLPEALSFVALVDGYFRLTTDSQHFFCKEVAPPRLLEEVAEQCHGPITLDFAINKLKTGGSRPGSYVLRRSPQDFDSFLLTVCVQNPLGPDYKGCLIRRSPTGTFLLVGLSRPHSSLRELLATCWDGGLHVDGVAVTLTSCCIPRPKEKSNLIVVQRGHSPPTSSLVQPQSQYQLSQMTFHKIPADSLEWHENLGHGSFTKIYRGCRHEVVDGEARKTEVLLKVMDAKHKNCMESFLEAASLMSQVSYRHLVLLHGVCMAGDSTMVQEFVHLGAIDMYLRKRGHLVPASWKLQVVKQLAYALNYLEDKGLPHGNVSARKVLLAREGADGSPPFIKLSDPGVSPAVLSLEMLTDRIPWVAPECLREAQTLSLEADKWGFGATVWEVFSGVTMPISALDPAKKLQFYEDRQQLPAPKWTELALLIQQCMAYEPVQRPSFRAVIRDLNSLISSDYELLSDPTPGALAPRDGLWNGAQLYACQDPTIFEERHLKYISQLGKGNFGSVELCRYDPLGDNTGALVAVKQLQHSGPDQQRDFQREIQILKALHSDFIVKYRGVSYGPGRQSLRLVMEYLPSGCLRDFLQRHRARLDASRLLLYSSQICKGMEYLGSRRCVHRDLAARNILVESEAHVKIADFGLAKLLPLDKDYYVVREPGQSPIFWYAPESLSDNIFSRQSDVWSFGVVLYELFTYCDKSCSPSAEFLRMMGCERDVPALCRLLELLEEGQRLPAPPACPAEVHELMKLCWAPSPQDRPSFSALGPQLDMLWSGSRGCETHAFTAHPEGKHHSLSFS
Experiment: JAK3 kinase inhibitory activity, ADP Glo assay
Conditions: read-out: JAK3 IC50, recombinant human JAK3, ATP 5 uM
pIC50: −log10 of the molar value.
experimentalEndpoint: pIC50

Below, 5 compounds whose answers are already recorded.
compound	pIC50
C=CC(=O)N1C[C@H](Nc2nc(Nc3cnn(CC(F)F)c3)nc3[nH]cc(Cl)c23)CC[C@@H]1C [Example 7]	9.52
C=CC(=O)N1C[C@H](Nc2nc(Nc3cnn(C4CCCC4)c3)nc3[nH]ccc23)CC[C@@H]1C [Example 4]	8.66
C=CC(=O)N1C[C@H](Nc2nc(Nc3cnn(CC(C)C)c3)nc3[nH]ccc23)CC[C@@H]1C [Example 3]	8.74
C=CC(=O)N1C[C@H](N(C)c2nc(Nc3cnn(CC)c3)nc3[nH]nc(Cl)c23)CC[C@@H]1C [Example 11]	8.24
C=CC(=O)N1C[C@H](Nc2nc(Nc3cnn(C4CC4)c3)nc3[nH]cc(Cl)c23)CC[C@@H]1C [Example 9]	9.52

a: C=CC(=O)N1C[C@H](Nc2nc(Nc3cnsc3)nc3[nH]cc(Cl)c23)CC[C@@H]1C [Example 6]
b: C=CC(=O)N1C[C@H](Nc2nc(Nc3cnn(CC)c3)nc3[nH]cc(Cl)c23)CC[C@@H]1C [Example 1]
Ask | Pick one, a or b : lowest reported pIC50. // caller expects the label of the chosen entry
Reply | a
(a: 9.22, b: 9.52)

a: C=CC(=O)N1C[C@H](Nc2nc(Nc3cnn(CCNC(=O)OC(C)(C)C)c3)nc3[nH]ccc23)CC[C@@H]1C [Example 5]
b: C=CC(=O)N1C[C@H](Nc2nc(Nc3cnn(CC)c3)nc3[nH]ccc23)CC[C@@H]1C [Example 2]
Ask | Which record would sort first by descending pIC50, a or b ? // caller expects the label of the chosen entry
Reply | b

###

Molecular target: UniProt Q06187
Sequence (Q06187 whole entry): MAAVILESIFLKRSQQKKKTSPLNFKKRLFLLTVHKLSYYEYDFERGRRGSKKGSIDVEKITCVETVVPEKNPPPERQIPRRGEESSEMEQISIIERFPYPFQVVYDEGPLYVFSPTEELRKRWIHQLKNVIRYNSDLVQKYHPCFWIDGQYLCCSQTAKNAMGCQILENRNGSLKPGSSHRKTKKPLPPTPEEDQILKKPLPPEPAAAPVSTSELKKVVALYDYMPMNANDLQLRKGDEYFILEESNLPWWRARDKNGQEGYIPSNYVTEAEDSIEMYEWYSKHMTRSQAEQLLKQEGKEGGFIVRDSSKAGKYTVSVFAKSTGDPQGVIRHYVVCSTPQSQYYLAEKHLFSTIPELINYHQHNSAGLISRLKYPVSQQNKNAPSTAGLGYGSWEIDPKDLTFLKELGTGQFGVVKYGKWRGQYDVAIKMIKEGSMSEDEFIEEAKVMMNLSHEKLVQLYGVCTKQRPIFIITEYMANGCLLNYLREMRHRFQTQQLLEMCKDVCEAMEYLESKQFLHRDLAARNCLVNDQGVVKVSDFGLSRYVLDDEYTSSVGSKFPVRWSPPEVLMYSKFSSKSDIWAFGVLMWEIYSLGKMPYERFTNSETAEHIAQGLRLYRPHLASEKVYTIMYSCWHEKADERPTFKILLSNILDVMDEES
Assay: BTK kinase inhibitory activity, ADP Glo assay
Settings: read-out: BTK IC50, recombinant human BTK, ATP 10 uM
experimentalEndpoint: IC50 (nM)

molecule	IC50 [nM]
C=CC(=O)N1C[C@H](Nc2nc(Nc3cnn(C4CCCC4)c3)nc3[nH]ccc23)CC[C@@H]1C	5.4
C=CC(=O)N1C[C@H](Nc2nc(Nc3cnsc3)nc3[nH]cc(Cl)c23)CC[C@@H]1C	3.4
C=CC(=O)N1C[C@H](Nc2nc(Nc3cnn(CC)c3)nc3[nH]ccc23)CC[C@@H]1C	1.3
C=CC(=O)N1C[C@H](Nc2nc(Nc3cnn(CCNC(=O)OC(C)(C)C)c3)nc3[nH]ccc23)CC[C@@H]1C	5.3
C=CC(=O)N1C[C@H](Nc2nc(Nc3cnn(CC(F)F)c3)nc3[nH]cc(Cl)c23)CC[C@@H]1C	1.6
C=CC(=O)N1C[C@H](Nc2nc(Nc3cnn(CC(C)C)c3)nc3[nH]ccc23)CC[C@@H]1C	3.5
C=CC(=O)N1C[C@H](Nc2nc(Nc3cnn(CC)c3)nc3[nH]cc(Cl)c23)CC[C@@H]1C	1.2

1: C=CC(=O)N1C[C@H](N(C)c2nc(Nc3cnn(CC)c3)nc3[nH]nc(Cl)c23)CC[C@@H]1C
2: C=CC(=O)N1C[C@H](Nc2nc(Nc3cnn(C4CC4)c3)nc3[nH]cc(Cl)c23)CC[C@@H]1C
Ask | Which record would sort first by descending IC50, 1 or 2 ? // caller expects the label of the chosen entry
Reply | 2
